assay: Electrometric titration (pKa); assay type: physicochemical; conditions: pH 8; electrometric titration in water, initial pH of 8
endpoint-name: pKa
Answers are plain numbers.

Problem: Look at this compound and give its reported pKa. CCC1(C2OC(C3OC(O)(COC4OC(CO)C(O)C(O)C4O)C(C)CC3C)CC2C)CCC(C2(C)CCC3(CC(O)C(C)C(C(C)C(OC)C(C)C(=O)O)O3)O2)O1 (stereo not shown) [Metabolite A-27106]
Solution: 7.2
